Value source: ChEMBL document CHEMBL1687756

assay: Drug level in female Beagle dog thymus at 200 mg/kg administered intramuscularly after 3 months; assay type: ADME, organism-based, Canis lupus familiaris; design: dose 200 mg/kg, route intramuscular; conditions: im, read-out: Drug uptake
experimental_endpoint: concentration at 2191.5 h (ng/g)

{"compound_string": "Cc1cc(/C=C/C#N)cc(C)c1Nc1ccnc(Nc2ccc(C#N)cc2)n1", "quantity_unit": "ng/g", "reported_result": 27.4}

---

experiment: AUC (0 to last) in male dog at 400 mg administered intramuscularly after 29 days; settings: plasma, im

{"compound_string": "Cc1cc(/C=C/C#N)cc(C)c1Nc1ccnc(Nc2ccc(C#N)cc2)n1", "quantity_unit": "µg·h/mL", "AUC(0-t) at 696 h": 188}
